Value source: ChEMBL document CHEMBL1681759

- assay-details: Cytotoxicity against african green monkey Vero cells assessed as growth inhibition after 48 hrs by sulforhodamine B assay
- Type: cell-based
- test-parameters: chlorocebus sabaeus
Listed next: entries and their corresponding GI50 at 48 h.
API: value field is a number in µg/mL; no unit string.

COc1cccc(C(=O)NNC(=O)c2ccc3[nH]c(-c4ccc([N+](=O)[O-])o4)nc3c2)c1: 31.2

QUERY: Entry COc1ccc(C(=O)NNC(=O)c2ccc3[nH]c(-c4ccc([N+](=O)[O-])o4)nc3c2)cc1OC : reported GI50 at 48 h = ?
RESULT: 62.5

QUERY: Entry O=C(NNC(=O)c1cc2ccccc2cc1O)c1ccc2[nH]c(-c3ccc([N+](=O)[O-])s3)nc2c1 : reported GI50 at 48 h = ?
RESULT: 31.2

QUERY: Entry COc1cc(C(=O)NNC(=O)c2ccc3[nH]c(-c4ccc([N+](=O)[O-])s4)nc3c2)cc(OC)c1OC : reported GI50 at 48 h = ?
RESULT: 31.2

QUERY: Entry O=C(NNC(=O)c1ccc2[nH]c(-c3ccc([N+](=O)[O-])o3)nc2c1)c1ccccc1 : reported GI50 at 48 h = ?
RESULT: 31.2

QUERY: Entry COc1cc(C(=O)NNC(=O)c2ccc3[nH]c(-c4ccc([N+](=O)[O-])o4)nc3c2)cc(OC)c1OC : reported GI50 at 48 h = ?
RESULT: 31.2

QUERY: Entry O=CNNC(=O)c1ccc2[nH]c(-c3ccc([N+](=O)[O-])o3)nc2c1 : reported GI50 at 48 h = ?
RESULT: 62.5
